- ASSAY_SYSTEM: Aβ1-42 (Homo sapiens, UniProt P05067)
- Construct: dissolving Aβ1-42 or Tau-RD3 (Tau repeat domain 3) monomers in DMSO
- Sequence (P05067 672-713 limits assumed): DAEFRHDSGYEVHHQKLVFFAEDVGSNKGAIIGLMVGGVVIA
- METHOD_NOTES: Amyloid-beta disaggregation test by Thioflavin-T analysis
- Type: biochemical
- MEASUREMENT_CONDITIONS: Aβ1-42 50 µM aggregated 24 hours, then compound 0 - 500 µM for 48 hours at 37 °C; concentration disaggregating 50 % of aggregates vs control; read-out: EC50 (µM) Aβ
MEASUREMENT_KIND: EC50

Some solved cases for reference:
| TEST_SMILES | MEASUREMENT_KIND | MEASURED_VALUE |
| --- | --- | --- |
| Cc1ncsc1C1=C(c2cn[nH]c2)C(=O)c2cc(OCCCc3ccccc3)ccc21 | EC50 | < 20 µM |
| O=C1C(c2ccccc2)=C(c2ccccc2)c2ccc(N3CCN(CCO)CC3)cc21 | EC50 | < 20 µM |
| O=C1C(c2ccccc2)=C(c2ccccc2)c2ncccc21 | EC50 | > 250 µM |

*Q* Any idea what EC50 was measured for Cc1ncsc1C1=C(C#N)C(=O)c2cc(OCCCc3ccccc3)ccc21 ?
*A* > 250 µM

*Q* Any idea what EC50 was measured for Cc1cc(OCCCc2ccccc2)cc2c1C(c1scnc1C)=C(c1cccnc1)C2=O ?
*A* < 20 µM

*Q* Any idea what EC50 was measured for COc1cc(OC)c2c(c1)C(=O)C(c1ccccc1)=C2c1ccccc1 ?
*A* < 20 µM

*Q* Any idea what EC50 was measured for O=C1C(c2ccccc2)=C(c2ccccc2)c2ccc(Cl)cc21 ?
*A* 100 to 250 µM

*Q* Any idea what EC50 was measured for CN1CCN(c2cccc(C3=C(c4ccccc4)C(=O)c4ccccc43)c2)CC1 ?
*A* 20 to 100 µM

###

- ASSAY_SYSTEM: Tau-RD3 (Tau repeat domain 3) (Homo sapiens, UniProt P10636)
- Sequence (P10636 623-653 limits assumed): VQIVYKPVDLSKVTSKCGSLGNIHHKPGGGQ
- METHOD_NOTES: Tau disaggregation test by Thioflavin-T analysis
- Assay type: biochemical
- MEASUREMENT_CONDITIONS: Tau-RD3 35 µM aggregated 24 hours, then compound 0 - 500 µM for 48 hours at 37 °C; concentration disaggregating 50 % of aggregates vs control; read-out: EC50 (µM) Tau
Below, each entry is listed alongside its reported EC50.

Some solved cases for reference:
| COMPOUND | ASSAY_SYSTEM | EC50 |
| --- | --- | --- |
| COc1cc(OC)c2c(c1)C(=O)C(c1ccccc1)=C2c1ccccc1 [Compound 97] | Tau-RD3 (Tau repeat domain 3) (Homo sapiens, UniProt P10636) | > 250 µM |
| Cc1ncsc1C1=C(c2cnn(C)n2)C(=O)c2cc(OCCCc3ccccc3)ccc21 [Compound 33] | Tau-RD3 (Tau repeat domain 3) (Homo sapiens, UniProt P10636) | < 20 µM |
| Cc1ncsc1C1=C(c2ccn(C3CCN(C)CC3)n2)C(=O)c2cc(OCCCc3ccccc3)ccc21 [Compound 29] | Tau-RD3 (Tau repeat domain 3) (Homo sapiens, UniProt P10636) | > 250 µM |

Now let's try a different one.
*Q* Query for Tau-RD3 (Tau repeat domain 3) (Homo sapiens, UniProt P10636): what EC50 does the record show for COc1cc(OCCCc2ccccc2)cc2c1C(c1scnc1C)=C(c1cccnc1)C2=O [Compound 47] ?
*A* < 20 µM

###

- ASSAY_SYSTEM: Aβ1-42 (Homo sapiens)
- Construct: dissolving Aβ1-42 or Tau-RD3 (Tau repeat domain 3) monomers in DMSO
- METHOD_NOTES: Amyloid-beta disaggregation test by Thioflavin-T analysis
- Type: biochemical
- MEASUREMENT_CONDITIONS: Aβ1-42 50 µM aggregated 24 hours, then compound 0 - 500 µM for 48 hours at 37 °C; concentration disaggregating 50 % of aggregates vs control; read-out: EC50 (µM) Aβ
MEASUREMENT_KIND: EC50

| MOLECULE | EC50 |
| --- | --- |
| Cc1ncsc1C1=C(c2cccc(CN3CCN(C)CC3)c2)C(=O)c2ccccc21 [Compound 88] | < 20 µM |
| Cc1ncsc1C1=C(c2cccnc2)C(=O)c2cc(NC3CC3)ccc21 [Compound 63] | < 20 µM |

Now let's try a different one.
*Q* Query for Aβ1-42 (Homo sapiens): what EC50 does the record show for Cc1ncsc1C1=C(c2cn(C)nn2)C(=O)c2cc(OCCCc3ccccc3)ccc21 [Compound 32] ?
*A* < 20 µM

###

- ASSAY_SYSTEM: Tau-RD3 (Tau repeat domain 3) (Homo sapiens, UniProt P10636)
- METHOD_NOTES: Tau disaggregation test by Thioflavin-T analysis
- Format: biochemical
- MEASUREMENT_CONDITIONS: Tau-RD3 35 µM aggregated 24 hours, then compound 0 - 500 µM for 48 hours at 37 °C; concentration disaggregating 50 % of aggregates vs control; read-out: EC50 (µM) Tau
MEASUREMENT_KIND: EC50

Some solved cases for reference:
| COMPOUND | ASSAY_SYSTEM | EC50 |
| --- | --- | --- |
| Cc1ncsc1C1=C(c2cccnc2)C(=O)c2cc(N(C)CCCc3ccccc3)ccc21 [Compound 65] | Tau-RD3 (Tau repeat domain 3) (Homo sapiens, UniProt P10636) | < 20 µM |
| O=C1C(Br)=C(c2ccccc2)c2ccccc21 | Tau-RD3 (Tau repeat domain 3) (Homo sapiens, UniProt P10636) | < 20 µM |
| Cc1cc(OCCCc2ccccc2)cc2c1C(c1scnc1C)=C(c1cccnc1)C2=O | Tau-RD3 (Tau repeat domain 3) (Homo sapiens, UniProt P10636) | < 20 µM |

Now let's try a different one.
*Q* Any idea what EC50 was measured for O=C1C(c2cccnc2)=C(c2cn[nH]c2)c2ccc(OCCCc3ccccc3)cc21 ?
*A* > 250 µM

###

- ASSAY_SYSTEM: Tau-RD3 (Tau repeat domain 3) (Homo sapiens, UniProt P10636)
- METHOD_NOTES: Tau disaggregation test by Thioflavin-T analysis
- Type: biochemical
- MEASUREMENT_CONDITIONS: Tau-RD3 35 µM aggregated 24 hours, then compound 0 - 500 µM for 48 hours at 37 °C; concentration disaggregating 50 % of aggregates vs control; read-out: EC50 (µM) Tau
Below, each entry is listed alongside its reported EC50.

Some solved cases for reference:
| TEST_SMILES | EC50 |
| --- | --- |
| CNC(=O)c1ccccc1C1=C(c2ccccc2C)c2ccccc2C1=O | > 250 µM |
| Cc1ncsc1C1=C(c2ccncc2)C(=O)c2cc(O)ccc21 | > 250 µM |
| Cc1ncsc1C1=C(c2ccccn2)C(=O)c2cc(OCCCc3ccccc3)ccc21 | > 250 µM |
| Nc1ccc2c(c1)C(=O)C(c1ccccc1)=C2c1ccccc1 | > 250 µM |
| O=C1C(c2ccccc2)=C(c2ccccc2)c2ccc(OCCCc3ccccc3)cc21 | > 250 µM |
| Cc1ccccc1C1=C(c2ccccc2)c2ccccc2C1=O | > 250 µM |
| Cc1ncsc1C1=C(c2cccnc2)C(=O)c2cc(NC3CC3)ccc21 | < 20 µM |
| Cc1ncsc1C1=C(c2ccc(N3CCN(C)CC3)cc2)C(=O)c2cc(N3CCN(CCO)CC3)ccc21 | < 20 µM |

*Q* Any idea what EC50 was measured for O=C1C(c2cncs2)=C(c2cncs2)c2ccc(OCCCc3ccccc3)cc21 ?
*A* < 20 µM

*Q* Any idea what EC50 was measured for Cc1ncsc1C1=C(c2cccnc2)C(=O)c2cc(OCCO)ccc21 ?
*A* 20 to 100 µM

*Q* Any idea what EC50 was measured for CN1CCN(c2ccc3c(c2)C(=O)C(c2ccccc2)=C3c2ccccc2)CC1 ?
*A* < 20 µM

*Q* Any idea what EC50 was measured for Cc1ncsc1C1=C(c2cccnc2)C(=O)c2cc(NC(=O)CCc3ccccc3)ccc21 ?
*A* < 20 µM

*Q* Any idea what EC50 was measured for Cc1ncsc1C1=C(c2ccc(N3CCN(C)CC3)cc2)C(=O)c2cc(OCCCc3ccccc3)ccc21 ?
*A* < 20 µM

*Q* Any idea what EC50 was measured for CN1CCN(c2cccc(C3=C(c4ccccc4)c4ccccc4C3=O)c2)CC1 ?
*A* > 250 µM

*Q* Any idea what EC50 was measured for CCCOc1ccc2c(c1)C(=O)C(c1ccccc1)=C2c1ccccc1 ?
*A* > 250 µM

*Q* Any idea what EC50 was measured for O=C1C(c2cncs2)=C(c2cncs2)c2ccc(O)cc21 ?
*A* 100 to 250 µM

*Q* Any idea what EC50 was measured for Cc1ncsc1C1=C(c2ccc(N3CCN(C)CC3)cc2)C(=O)c2cc(Cl)ccc21 ?
*A* < 20 µM

###

- ASSAY_SYSTEM: Aβ1-42 (Homo sapiens)
- Construct: dissolving Aβ1-42 or Tau-RD3 (Tau repeat domain 3) monomers in DMSO
- METHOD_NOTES: Amyloid-beta disaggregation test by Thioflavin-T analysis
- Type: biochemical
- MEASUREMENT_CONDITIONS: read-out: EC50 (µM) Aβ; Aβ1-42 50 µM aggregated 24 hours, then compound 0 - 500 µM for 48 hours at 37 °C; concentration disaggregating 50 % of aggregates vs control
MEASUREMENT_KIND: EC50

*Q* Query for Aβ1-42 (Homo sapiens): what EC50 does the record show for CC(C)Oc1ccc2c(c1)C(=O)C(c1ccccc1)=C2c1ccccc1 ?
*A* 20 to 100 µM
